Where these numbers come from: patent US20220378931A1

# Target Or Test System: T1, pig serum albumin (pig, UniProt P08835 25-607)
# T1 construct: bought protein, amine-coupled to a CM5 chip; also called Pig SA
# Assay Text: SPR (Biacore 8K), albumin immobilised, 25 C, 1:1 kinetics
Measurement Type: koff (s⁻¹)
// note: answer is a bare numeric in s⁻¹

Record INS Analog 26 (other, single-chain insulin B-L2-A-L1-VHH fusion; also called Ex. 26) FVSQHLCGSHLVEALRLVCGERGFFYTPKTGGGGGGGIVEQCCTSICSLYQLENYCGPGPQPGPQPGPQPGPQPGPQPGPQPGPQPGPQEVQLLESGGGLVQPGGSLRLSCAASGRYIDETAVAWFRQAPGKEREFVAGIGGGVDITYYADSVKGRFTISRDNSKNTLYLQMNSLRPEDTAVYYCAARPGRPLITSKVADLYPYWGQGTLVTVSSPP , field koff: 0.0098

INS Analog 29 (other, single-chain insulin B-L2-A-L1-VHH fusion; also called Ex. 29) FVSQHLCGSHLVEALRLVCGERGFHYTPKTGGGGGGGIVEQCCHSICSLYQLENYCGGGGGQGGGGQGGGGQGGGGQGGGGQEVQLLESGGGLVQPGGSLRLSCAASGRYIDETAVAWFRQAPGKEREFVAGIGGGVDITYYADSVKGRFTISRDNSKNTLYLQMNSLRPEDTAVYYCAARPGRPLITSKVADLYPYWGQGTLVTVSSPP yielded koff of 0.013

In plain terms, INS Analog 27 (other, single-chain insulin B-L2-A-L1-VHH fusion; also called Ex. 27) FVSQHLCGSHLVEALRLVCGERGFFYTPKTGGGGGGGIVEQCCHSICSLYQLENYCGGGGGQGGGGQGGGGQGGGGQGGGGQEVQLLESGGGLVQPGGSLRLSCAASGRYIDETAVAWFRQAPGKEREFVAGIGGGVDITYYADSVKGRFTISRDNSKNTLYLQMNSLRPEDTAVYYCAARPGRPLITSKVADLYPYWGQGTLVTVSSPP has a documented koff of 0.01

Value of koff reported for the binder INS Analog 28 (other, single-chain insulin B-L2-A-L1-VHH fusion; also called Ex. 28) FVSQHLCGSHLVEALRLVCGERGFFYTPKTGGGGGGGIVEQCCHSICSLYQLENYCGPGPQPGPQPGPQPGPQPGPQPGPQPGPQPGPQEVQLLESGGGLVQPGGSLRLSCAASGRYIDETAVAWFRQAPGKEREFVAGIGGGVDITYYADSVKGRFTISRDNSKNTLYLQMNSLRPEDTAVYYCAARPGRPLITSKVADLYPYWGQGTLVTVSSPP is 0.0084

The binder listed as INS Analog 24 (other, single-chain insulin B-L2-A-L1-VHH fusion; also called Ex. 24) FVSQHLCGSHLVEALHLVCGERGFHYTPKTGGGGGGGIVEQCCHSICSLEQLENYCGPGPQPGPQPGPQPGPQPGPQPGPQPGPQPGPQEVQLLESGGGLVQPGGSLRLSCAASGRYIDETAVAWFRQAPGKEREFVAGIGGGVDITYYADSVKGRFTISRDNSKNTLYLQMNSLRPEDTAVYYCAARPGRPLITSKVADLYPYWGQGTLVTVSSPP has a reported koff of 0.011

Query INS Analog 23 (other, single-chain insulin B-L2-A-L1-VHH fusion; also called Ex. 23) FVSQHLCGSHLVEALHLVCGERGFHYTPKTGGGGGGGIVEQCCHSICSLEQLENYCGGGGGQGGGGQGGGGQGGGGQGGGGQEVQLLESGGGLVQPGGSLRLSCAASGRYIDETAVAWFRQAPGKEREFVAGIGGGVDITYYADSVKGRFTISRDNSKNTLYLQMNSLRPEDTAVYYCAARPGRPLITSKVADLYPYWGQGTLVTVSSPP yields koff of 0.012

response.value for INS Analog 30 (other, single-chain insulin B-L2-A-L1-VHH fusion; also called Ex. 30) FVSQHLCGSHLVEALRLVCGERGFHYTPKTGGGGGGGIVEQCCHSICSLYQLENYCGPGPQPGPQPGPQPGPQPGPQPGPQPGPQPGPQEVQLLESGGGLVQPGGSLRLSCAASGRYIDETAVAWFRQAPGKEREFVAGIGGGVDITYYADSVKGRFTISRDNSKNTLYLQMNSLRPEDTAVYYCAARPGRPLITSKVADLYPYWGQGTLVTVSSPP (field: koff) = 0.0092
